- ASSAY_NAME: Induction of disruption of actin stress fibers in human TM1 cells by actin stress fiber assay
- Assay type: functional, cell-based
ENDPOINT: IC50
Give the value; after it, write the unit.

Briefly, IC50 measured for Cc1ccc(C(=O)OCc2ccc([C@@H](CN)C(=O)Nc3ccc4cnccc4c3)cc2)c(C)c1 : 16 nM

* * *

- ASSAY_NAME: Half life in rabbit
- Assay type: ADME, Oryctolagus cuniculus
- EXPERIMENTAL_CONTEXT: in vivo
ENDPOINT: half-life

Briefly, half-life measured for O=C(CCC/C=C\C[C@@H]1[C@@H](CC[C@@H](O)CCc2ccccc2)[C@H](O)C[C@@H]1O)OCCCCO[N+](=O)[O-] : 1.8 h

* * *

- ASSAY_NAME: Half life in human
- Type: ADME
ENDPOINT: half-life (min)
All answers are understood in min, so give the number only.

Briefly, half-life measured for O=C(O)CNc1cccc(CN(Cc2ccc(-n3cccn3)cc2)S(=O)(=O)c2cccnc2)n1 : 30

* * *

- TESTED_ON: Prostaglandin E2 receptor EP3 subtype (Homo sapiens, UniProt P43115)
- Sequence (P43115 whole entry): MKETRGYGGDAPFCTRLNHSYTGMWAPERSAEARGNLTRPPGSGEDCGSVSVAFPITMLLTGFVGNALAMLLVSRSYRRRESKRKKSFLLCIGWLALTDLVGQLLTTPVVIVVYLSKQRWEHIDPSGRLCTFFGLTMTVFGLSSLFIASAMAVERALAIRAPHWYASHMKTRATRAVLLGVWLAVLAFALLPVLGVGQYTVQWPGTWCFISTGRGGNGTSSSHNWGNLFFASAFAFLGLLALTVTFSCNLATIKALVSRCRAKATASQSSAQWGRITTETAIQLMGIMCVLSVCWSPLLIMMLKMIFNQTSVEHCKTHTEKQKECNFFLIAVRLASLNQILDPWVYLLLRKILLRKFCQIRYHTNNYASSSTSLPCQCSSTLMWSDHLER
- ASSAY_NAME: Agonist activity at EP3 (unknown origin)
ENDPOINT: pEC50
Units for pEC50: none; it is -log10 of a concentration expressed in mol/L.

[
  {
    "TEST_SMILES": "CC(C)OC(=O)CCC[C@H]1CC[C@@H]2[C@@H](/C=C/[C@@H](O)COc3cc(F)ccc3F)[C@H](O)C[C@@H]2OC1",
    "TESTED_ON": "Prostaglandin E2 receptor EP3 subtype (Homo sapiens, UniProt P43115)",
    "ENDPOINT": "pEC50",
    "EXPERIMENTAL_RESULT": 8.00
  }
]

# ---- query compound ----
Briefly, pEC50 measured for O=C(O)CCC[C@H]1CC[C@@H]2[C@@H](/C=C/[C@@H](O)COc3cc(F)ccc3F)[C@H](O)C[C@@H]2OC1 : 7.54
